Listed here are molecules together with their documented log10(solubility).
assayMethodText: Aqueous solubility of compound
Type: physicochemical
experimentalSetup: buffer
Response schema: value (number) is log10 of solubility in units of mg/mL.

| molecule | log10(solubility) |
| --- | --- |
| CS(=O)(=O)NCCCn1c(=O)c2cc(F)ccc2n2c(=S)[nH]nc12 | -1.47 |
| CN1CCCC1CCn1c(=O)c2cc(F)ccc2n2c(=S)[nH]nc12 (racemic) | -1.75 |
| CCCCCn1c(=O)c2ccccc2n2c(S)nnc12 | -2.38 |

Qu. I would be grateful if you could share the reported log10(solubility) for O=C(NCCCn1c(=O)c2cc(F)ccc2n2c(=S)[nH]nc12)c1ccccc1 .
Ans. -1.66

Qu. Can you handle CC(C)(C)OC(=O)N1CCN(CCn2c(=O)c3cc(F)ccc3n3c(=S)[nH]nc23)CC1 next?
Ans. -1.69

Qu. Can you handle CC(=O)Nc1ccc2c(c1)c(=O)n(CCc1ccccc1)c1n[nH]c(=S)n21 next?
Ans. -2.66

Qu. Can you handle CC(C)(C)OC(=O)N1CC(CCn2c(=O)c3cc(F)ccc3n3c(=S)[nH]nc23)C1 next?
Ans. -1.82

Qu. Can you handle O=c1c2cc(F)ccc2n2c(=S)[nH]nc2n1CCC(F)(F)F next?
Ans. -1.76

Qu. Can you handle O=c1c2cc(F)ccc2n2c(=S)[nH]nc2n1CCc1ccc(Cl)cc1 next?
Ans. -2.92

----------
assayMethodText: Half life in rat liver microsomes at 1 uM measured up to 60 mins in presence of NADPH generating system
experimentalSetup: 1 h
measuredEndpoint: t1/2

As a guide, the following entries are already answered.
| molecule | t1/2 |
| --- | --- |
| O=c1c2cc(F)ccc2n2c(=S)[nH]nc2n1CCCO | > 30 min |
| CCn1c(=O)c2cc(F)ccc2n2c(=S)[nH]nc12 | > 30 min |
| COc1ccccc1CC(=O)NCCCn1c(=O)c2cc(F)ccc2n2c(=S)[nH]nc12 | 16.1 min |

Qu. I would be grateful if you could share the reported t1/2 for CC(=O)NCCCn1c(=O)c2cc(F)ccc2n2c(=S)[nH]nc12 .
Ans. > 30 min

Qu. Can you handle CC(C)(C)OC(=O)CC[C@H](NC(=O)OC(C)(C)C)C(=O)NCCCn1c(=O)c2cc(F)ccc2n2c(=S)[nH]nc12 next?
Ans. 3.8 min

Qu. Can you handle O=c1c2cc(F)ccc2n2c(=S)[nH]nc2n1CCc1ccccc1 next?
Ans. > 30 min

Qu. Can you handle O=C(Cc1ccc(F)cc1)NCCCn1c(=O)c2cc(F)ccc2n2c(=S)[nH]nc12 next?
Ans. 26.3 min

Qu. Can you handle CC(=O)Nc1ccc2c(c1)c(=O)n(CCc1ccccc1)c1n[nH]c(=S)n21 next?
Ans. > 30 min

Qu. Can you handle O=c1c2cc(F)ccc2n2c(=S)[nH]nc2n1CCN1CCOCC1 next?
Ans. > 30 min

Qu. Can you handle N[C@@H](CCC(=O)O)C(=O)NCCOCCOCCOCCOCCC(=O)NCCCn1c(=O)c2cc(F)ccc2n2c(=S)[nH]nc12 next?
Ans. > 30 min

----------
assayMethodText: Aqueous solubility of compound
Format: physicochemical
experimentalSetup: buffer
Listed here are compounds together with their documented solubility.

| molecule | solubility |
| --- | --- |
| O=C(NCCCn1c(=O)c2cc(F)ccc2n2c(=S)[nH]nc12)C1CCNCC1 | > 60 µg/mL |
| CC(C)(C)OC(=O)NCCOCCOCCOCCC(=O)NCCCn1c(=O)c2cc(F)ccc2n2c(=S)[nH]nc12 | > 88 µg/mL |
| O=C(Cc1cccc(Cl)c1)NCCCn1c(=O)c2cc(F)ccc2n2c(=S)[nH]nc12 | > 66 µg/mL |
| O=c1c2cc(F)ccc2n2c(=S)[nH]nc2n1CCN1CCOCC1 | > 52 µg/mL |
| O=c1c2cccc(F)c2n2c(=S)[nH]nc2n1CCc1ccccc1 | 3.4 µg/mL |
| O=c1c2cc(F)ccc2n2c(=S)[nH]nc2n1CCCc1ccccc1 | < 1 µg/mL |

Qu. I would be grateful if you could share the reported solubility for NCCCn1c(=O)c2cc(F)ccc2n2c(=S)[nH]nc12.O=C(O)C(F)(F)F .
Ans. > 43 µg/mL

Qu. Can you handle N[C@@H](CCC(=O)O)C(=O)NCCCn1c(=O)c2cc(F)ccc2n2c(=S)[nH]nc12 next?
Ans. 32 µg/mL

Qu. Can you handle O=c1c2cc(N3CCOCC3)ccc2n2c(=S)[nH]nc2n1CCc1ccccc1 next?
Ans. 3.4 µg/mL

Value source: ChEMBL document CHEMBL4673282
